Would you kindly list AIRE transcriptional activation functional score for each of these variants?
B1: library; numbered along this chain (parent)
chain: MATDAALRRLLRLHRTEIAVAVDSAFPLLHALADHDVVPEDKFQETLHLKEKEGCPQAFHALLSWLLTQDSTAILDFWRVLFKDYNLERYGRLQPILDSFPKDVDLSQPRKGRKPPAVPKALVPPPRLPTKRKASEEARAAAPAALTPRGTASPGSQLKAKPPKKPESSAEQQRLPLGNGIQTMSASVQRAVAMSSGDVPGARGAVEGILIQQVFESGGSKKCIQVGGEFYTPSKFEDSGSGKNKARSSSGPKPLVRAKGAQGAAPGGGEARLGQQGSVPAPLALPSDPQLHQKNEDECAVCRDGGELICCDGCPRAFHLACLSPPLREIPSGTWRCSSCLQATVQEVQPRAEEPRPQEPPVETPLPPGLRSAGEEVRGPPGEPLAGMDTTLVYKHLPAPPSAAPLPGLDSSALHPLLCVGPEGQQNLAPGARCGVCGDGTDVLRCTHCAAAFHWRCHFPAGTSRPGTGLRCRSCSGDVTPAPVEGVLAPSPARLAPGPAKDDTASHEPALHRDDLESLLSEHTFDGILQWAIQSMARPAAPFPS

variants of: B1; experiment: AIRE transcriptional activation functional score (insulin promoter-GFP; nonsense median 0, synonymous median 1) (normalised score); higher = higher AIRE activity (more reporter activation); conditions: with insulin promoter-GFP reporter in HEK293
Respond using a number only.

Q: Please give the documented AIRE transcriptional activation functional score of G268N
Ans: 0.988

Q: Please give the documented AIRE transcriptional activation functional score of D36M
Ans: -0.672

Q: Please give the documented AIRE transcriptional activation functional score of Q182G
Ans: 0.423

Q: Please give the documented AIRE transcriptional activation functional score of A170V
Ans: 0.782

Q: Please give the documented AIRE transcriptional activation functional score of V362Q
Ans: 1.16

Q: Please give the documented AIRE transcriptional activation functional score of V348T
Ans: 1.04

Q: Please give the documented AIRE transcriptional activation functional score of S220C
Ans: 1.21

Q: Please give the documented AIRE transcriptional activation functional score of P286Y
Ans: 1.65

Q: Please give the documented AIRE transcriptional activation functional score of I211V
Ans: 1.15

Q: Please give the documented AIRE transcriptional activation functional score of E298I
Ans: 1.03

Q: Please give the documented AIRE transcriptional activation functional score of L283F
Ans: 1.17

Q: Please give the documented AIRE transcriptional activation functional score of Q346K
Ans: 0.899

Q: Please give the documented AIRE transcriptional activation functional score of S153K
Ans: 0.285

Q: Please give the documented AIRE transcriptional activation functional score of S248C
Ans: 1.03

Q: Please give the documented AIRE transcriptional activation functional score of C446T
Ans: -0.0482

Q: Please give the documented AIRE transcriptional activation functional score of D103W
Ans: 0.822

Q: Please give the documented AIRE transcriptional activation functional score of L128H
Ans: 0.857

Q: Please give the documented AIRE transcriptional activation functional score of T151F
Ans: 1.76

Q: Please give the documented AIRE transcriptional activation functional score of Q212A
Ans: -0.0175

Q: Please give the documented AIRE transcriptional activation functional score of P398N
Ans: 0.615

Q: Please give the documented AIRE transcriptional activation functional score of R79H
Ans: 1.25

Q: Please give the documented AIRE transcriptional activation functional score of A6L
Ans: 1.45

Q: Please give the documented AIRE transcriptional activation functional score of A300D
Ans: 1.26

Q: Please give the documented AIRE transcriptional activation functional score of S491P
Ans: 1.1

Q: Please give the documented AIRE transcriptional activation functional score of I224Y
Ans: 0.84

Q: Please give the documented AIRE transcriptional activation functional score of T232Y
Ans: 0.775

Q: Please give the documented AIRE transcriptional activation functional score of C446V
Ans: -0.492

Q: Please give the documented AIRE transcriptional activation functional score of W78N
Ans: -0.791

Q: Please give the documented AIRE transcriptional activation functional score of P466A
Ans: 0.83

Q: Please give the documented AIRE transcriptional activation functional score of N427M
Ans: 1.81

Q: Please give the documented AIRE transcriptional activation functional score of T391D
Ans: 0.889

Q: Please give the documented AIRE transcriptional activation functional score of P148S
Ans: 1.19

Q: Please give the documented AIRE transcriptional activation functional score of K235I
Ans: 0.627

Q: Please give the documented AIRE transcriptional activation functional score of E17D
Ans: 1.42

Q: Please give the documented AIRE transcriptional activation functional score of P289D
Ans: -0.468

Q: Please give the documented AIRE transcriptional activation functional score of L106D
Ans: 0.107

Q: Please give the documented AIRE transcriptional activation functional score of P481S
Ans: 0.91

Q: Please give the documented AIRE transcriptional activation functional score of K102N
Ans: 1.44

Q: Please give the documented AIRE transcriptional activation functional score of R371V
Ans: 1.27
